# Tested on: M21
# Protocol: Tumor cell viability
# Format: cell-based
# Condition parameters: Melanoma M21
Quantity name: EC50 (nM)

CSc1nc(N)cc(Oc2ccc(-c3nnc(Nc4cccc(C(F)(F)F)c4)[nH]3)cc2)n1 : 450

* * *

# Test system: SK-MEL-28
# Protocol: Tumor cell viability
# Format: cell-based
# Condition parameters: Homo sapiens; Melanoma SK-MEL-28, B-RAF V600E
# Protocol: For XTT assays, cells were grown in 96-well plates overnight and all assays were conducted in growth medium will full serum and additives. […] Dose-response curves were plotted using GraphPad Prism software and EC50s were calculated using this program.
Quantity name: EC50 (µM)

CNC(=O)c1cc(Oc2ccc(NC(=O)Nc3ccc(Cl)c(C(F)(F)F)c3)cc2)ccn1 [sorafenib, reference compound] : 17.6
